# Tested on: Enterococcus faecalis
# MEASUREMENT PROTOCOL: Antimicrobial activity against Enterococcus faecalis NKH3 harboring pMG2200-like and pMG2201-like plasmids after 24 hrs by agar dilution method
# Assay type: functional
# APPLIED CONDITIONS: NKH3, 24 h
Recorded MIC by entry
PARAMETER MEASURED: MIC (µg/mL)

>>> assay_result("CN(C)[C@@H]1C(O)=C(C(N)=O)C(=O)[C@@]2(O)C(O)=C3C(=O)c4c(O)cccc4[C@@](C)(O)[C@H]3C[C@@H]12 [TETRACYCLINE]")
32
>>> assay_result("CC1(C)S[C@@H]2[C@H](NC(=O)[C@H](N)c3ccccc3)C(=O)N2[C@H]1C(=O)O [AMPICILLIN]")
4
>>> assay_result("O=C(O)c1cn(C2CC2)c2cc(N3CCNCC3)c(F)cc2c1=O [CIPROFLOXACIN]")
64
>>> assay_result("O=C(N[C@H](CO)[C@H](O)c1ccc([N+](=O)[O-])cc1)C(Cl)Cl [CHLORAMPHENICOL]")
8
>>> assay_result("CN[C@@H]1[C@H](O[C@H]2[C@H](O[C@H]3[C@H](O)[C@@H](O)[C@H](N=C(N)N)[C@@H](O)[C@@H]3N=C(N)N)O[C@@H](C)[C@]2(O)C=O)O[C@@H](CO)[C@H](O)[C@H]1O [STREPTOMYCIN]")
32
